- PROCEDURE TEXT: Toxicity liver stage against HepG2, at 10uM
- Format: cell-based
- Design: test concentration 10 uM, cell line HepG2-A16-CD81EGFP
- SETTINGS: human, HepG2-A16-CD81EGFP cells; read-out: INHIBITION
Field: cytotoxicity at 10 µM. Provide a value for each of the molecules that follow.
Give bare numbers, in %.

CC(C)n1nnnc1-c1ccc(NC(=O)N(C)CCN(C)C)cc1F
-2.71
CC(C)c1nc(CC(=O)N(C)Cc2ccc3c(c2)OCO3)cs1
-13.5
Cc1nc(CN(C)C)cc(N2CCCC(COc3ccc(F)cc3)C2)n1 (stereo not given)
-7.4

I need cytotoxicity at 10 µM for every entry listed below, if you could help.
1. CCCN(Cc1ccccc1C)C(CC)CO (stereo not given)
2. Cc1cnn(CCNCc2csc(C)n2)c1
3. c1ccc(CCN2CCCC(Cn3ccnc3)C2)cc1 (stereo not given)

Reply text:
[-6.08, 5.79, 1.43]

// input: 8 molecules below; output: cytotoxicity at 10 µM for each
1. COc1ccccc1OCCCN(C)c1cc(C)nc(N)n1
2. Cc1ccc(CN2CC(C(=O)Nc3ccccc3)C3(CCOCC3)C2)o1 (stereo not given)
3. COC(C)C(=O)Nc1cc(C(=O)N2CCSCC2)ccc1C (stereo not given)
4. C[C@@H](NC(=O)c1cnccn1)c1c(-c2ccc(Cl)cc2)noc1C(=O)O
5. O=C(Nc1ccc(CCN2CCSCC2)cc1)NC1CC1
6. CCC(NC(=O)C1CCN(S(C)(=O)=O)CC1)c1ccc(OC)cc1 (stereo not given)
7. CCc1n[nH]c(C2CN(Cc3nnc(C4CC4)o3)CCO2)n1 (stereo not given)
8. CC(C)C1SCC(=O)Nc2c1cnn2-c1ccc(Cl)cc1 (stereo not given)

Reply text:
1.39
0.927
6.83
4.26
-12.1
-1.82
-14.3
47

Batch of 3 molecules: report cytotoxicity at 10 µM for each.
1. CN1CCC(Cc2cc(N(C)C)ncn2)C1 (stereo not given)
2. Cc1ccc(CN2CCC3(CCCN(S(C)(=O)=O)C3)C2)o1 (stereo not given)
3. Cc1cnc(-c2nc(-c3cccc(CN4CCOCC4)c3)no2)cn1

Reply text:
1: 3.19; 2: -104; 3: -4.21

I need cytotoxicity at 10 µM for every entry listed below, if you could help.
1. CC(C)(C)c1cn2nc(N3CCCC3Cn3cncn3)sc2n1 (stereo not given)
2. NC(=O)N1CCCN(CC(=O)NCCc2c(F)cccc2F)CC1
3. Cc1nc(C(C)(C)C)sc1C(=O)NCCn1ccnc1
4. CCOC(=O)CCCNC(=O)CN1CCN(c2ncccn2)CC1
5. Cc1cc(C)n(CC2CCCN2C(=O)c2ccc3c(c2)nnn3C)n1 (stereo not given)

Reply text:
[1.43, -5.15, -0.586, -13.3, -17.3]

---

- PROCEDURE TEXT: Toxicity liver stage against HepG2, at 10uM
- Format: cell-based
- Parameters: test concentration 10 uM, cell line HepG2-A16-CD81EGFP
- SETTINGS: human, HepG2-A16-CD81EGFP cells; read-out: INHIBITION
Exercise: for every item that follows, state its recorded cytotoxicity at 10 µM.
Give bare numbers, in %.

CC(=O)NC1(C(=O)N2CCCN(c3cccnn3)CC2)CCCCC1
8.15
Cc1ccc(CN2C[C@@H]3CCN(Cc4cccnc4)C(=O)[C@H]3C2)s1
0.434
CCN(CCNCc1cccc(C#N)c1)C1CC1
-11.3
Cc1cnn(CCC(=O)Nc2cccnc2N2CCC(CO)CC2)c1
-2
Cc1cc(N(C)C)nc(C2(C)CCCN2C(=O)c2ccccc2)n1 (stereo unspecified)
-27.4

Pending molecule:
Inquiry: Give its cytotoxicity at 10 µM value. Item: CC(C)(C)c1cc(NC(=O)CN2CCCC2Cn2cccn2)on1 (stereo unspecified)
Reply text: -15.3

---

- PROCEDURE TEXT: Toxicity liver stage against HepG2, at 10uM
- Type: cell-based
- Set-up: test concentration 10 uM, cell line HepG2-A16-CD81EGFP
- SETTINGS: human, HepG2-A16-CD81EGFP cells; read-out: INHIBITION
Kindly supply the reported cytotoxicity at 10 µM values for the records listed here.
Answers are plain numbers, in %.

Solved entries (count: 6):
CNC(=O)C1Cn2ccnc2C2(CCN(CCF)CC2)O1 (centres undefined)
-12.6
O=C(Nc1ccnc2ccnn12)c1ccc(N2CCC(O)CC2)cc1
53.4
COCC1c2nnn(C)c2CCN1C(=O)COc1ccccc1OC (centres undefined)
-105
CN(C)c1cc(CNCc2cccc3c2OCCO3)ccn1
3.57
CCc1nc(CNCC2CCCN2c2cccnn2)cs1 (centres undefined)
-7.69
CN(C(=O)c1cccc(C(=O)NS(C)(=O)=O)c1)c1ccccc1
-2.35

Provide reported cytotoxicity at 10 µM for each item, in the same order as listed.
1. CS(=O)(=O)NC[C@H]1OC[C@@H](NC2CCC(F)(F)CC2)[C@@H]1O
2. Cc1ccc(Br)cc1NC(=O)NC1CCC2(C1)OCCO2 (centres undefined)
3. COCc1cnc2n1CCN(C(=O)c1cnc3ccccc3c1)C2C (centres undefined)

Reply text:
1: 0.644; 2: 15.6; 3: -110

---

I'd appreciate it if you could supply cytotoxicity at 10 µM values for the items below.
- PROCEDURE TEXT: Toxicity liver stage against HepG2, at 10uM
- Type: cell-based
- Design: test concentration 10 uM, cell line HepG2-A16-CD81EGFP
- SETTINGS: human, HepG2-A16-CD81EGFP cells; read-out: INHIBITION
One number for each entry, in %.

c1cnn(C2CN(c3nc(-c4ccncc4)nc4c3CCC4)C2)c1
-43
O=C(NCCCNC(=O)c1cccc(O)c1)Nc1ccc(Cl)cc1
-3.79
CC(=O)N1CCC(C(=O)c2cnn(-c3ccccc3)c2N)C1 (stereo unspecified)
5.54
Cc1ccsc1CNC(=O)CCc1c(C)nc2cc(O)nn2c1C
-7.01
CS(=O)(=O)N1CCCC12CCCN(S(=O)(=O)c1cccc(F)c1)C2 (stereo unspecified)
0.88

Inquiry: Please report the recorded cytotoxicity at 10 µM for `O=C1CCC(=O)N1c1nn(Cc2ccccc2)cc1Cl` .
Reply text: -14.4

---

Assign cytotoxicity at 10 µM to each entry below.
- PROCEDURE TEXT: Toxicity liver stage against HepG2, at 10uM
- Format: cell-based
- Design: test concentration 10 uM, cell line HepG2-A16-CD81EGFP
- SETTINGS: human, HepG2-A16-CD81EGFP cells; read-out: INHIBITION
Record the result as number plus unit.

COc1ccc(OC)c(C(=O)N(C)Cc2nnc3ccccn23)c1
-0.972%
O=C(Nc1ccc2c(c1)OCO2)Nc1cnn(C2CCOCC2)c1
-8.54%
COCCC(=O)N(Cc1ccccn1)Cc1ccccc1C
2.14%
CN1CCCC(C(=O)N2CCC(Oc3ccc(C#N)cn3)CC2)C1 (configuration not stated)
-5.6%
CN(C)CC(C)(C)CN1CCC(c2ccnc(-c3cccc(O)c3)c2)C1 (configuration not stated)
3.36%

Could I get cytotoxicity at 10 µM for every one of these entries?
1. O=C(NCC(O)CO)Nc1cc(Br)ccc1F (configuration not stated)
2. Cc1cccc(CNCC2COC3(CCCC3)O2)c1C (configuration not stated)
3. O=C(NC1(c2nccs2)CCCC1)c1[nH]nc(C2CC2)c1Cl
4. CCOc1ccc(-c2ccc3c(c2)OCO3)cc1C(N)=O
5. COCCN1CCCC(C)(c2cc(O)[nH]n2)C1 (configuration not stated)

Reply text:
1.69%
-150%
-24.6%
5.17%
10.8%

I'm hoping you can list cytotoxicity at 10 µM for every molecule here, please.
1. CCOc1ccc(C(=O)N2CCCC2Cn2cc(C)cn2)cn1 (configuration not stated)
2. COCCN(Cc1noc(-c2ccc(OC)cc2)n1)C1CC1

Reply text:
-20.2%
5.69%

---

Would you kindly list cytotoxicity at 10 µM for each of these molecules?
- PROCEDURE TEXT: Toxicity liver stage against HepG2, at 10uM
- Type: cell-based
- Parameters: test concentration 10 uM, cell line HepG2-A16-CD81EGFP
- SETTINGS: human, HepG2-A16-CD81EGFP cells; read-out: INHIBITION
Numbers only, in %.

Consider the worked cases shown below.
Cc1ccc(C(=O)NCCC2CN(C3CCCC3)CCO2)c(C)c1 (stereo unspecified)
-3.76
Cc1nc(CN2CCCC(NCc3sccc3C)C2)no1 (stereo unspecified)
-2.85
CS(=O)(=O)N1CCCCCC1C1CCN(c2ncccc2C#N)CC1 (stereo unspecified)
-3.2

Okay, here is my list. What is cytotoxicity at 10 µM for each of these?
1. Cc1ccc(S(=O)(=O)N2CCOc3ccccc32)cc1C(N)=O
2. CC(C)[C@@H]1CN(Cc2c[nH]nc2-c2ccc(F)cc2)C[C@H]1NS(C)(=O)=O
3. CC(=O)N1CCN(c2cncc(C3CCNCC3)n2)CC1

Reply text:
[7.91, -0.882, 16.8]

Kindly give each listed record's cytotoxicity at 10 µM.
1. COCCNc1nc(-c2ccc(S(=O)(=O)N3CCCCC3)cc2)cs1
2. COC(=O)C(C)N1CCCc2cc(OC)ccc2C1 (stereo unspecified)
3. Cc1cc(-n2cccn2)ccc1CN1CCOCC(CN(C)C)C1 (stereo unspecified)
4. CS(=O)(=O)N1CCCn2nc(CNc3cc(C#N)ccn3)cc2C1
5. c1cnc(NCCCOC2CCOCC2)nc1

Reply text:
-42
11
-38.2
-8.5
-2.96

Could you report cytotoxicity at 10 µM for every entry in the following list?
1. COc1cc(I)c(Cl)cc1C(=O)N(C)CC(=O)NC(C)(C)C
2. CC(C)=CCN1CCOC(Cn2cccn2)C1 (stereo unspecified)
3. O=C(c1ncoc1-c1ccco1)N1CCCN(c2nccs2)CC1
4. Cc1ccc2c(n1)N(C)CCN(CCN1CCCC1)C2
5. N#Cc1cc(NC(=O)C2CC=CC2)ccc1N1CCC(O)CC1
6. Cc1cc(C(=O)N2CC[C@@H](N(C)C)[C@@H]2Cc2ccccc2)no1
7. O=c1[nH]c(-c2ccncc2)nc2c1CCN(S(=O)(=O)N1CCCC1)C2
8. Cc1noc(NC(=O)c2cccc(Br)c2)n1

Reply text:
1. 15.4
2. 2.4
3. 2.99
4. -8.84
5. -9.29
6. -0.567
7. 6.04
8. -5.3

Required: cytotoxicity at 10 µM, one value per molecule below.
1. CC(=O)Nc1ccc(CNC2COc3c2ccc(C)c3C)cc1 (stereo unspecified)
2. CCC(=O)N1CCN(S(=O)(=O)c2cccc(F)c2)[C@H]2CS(=O)(=O)C[C@H]21
3. c1cncc(COCc2nnc3n2CCN(Cc2ccco2)C3)c1
4. CCN1CC2(CC1=O)CN(C(=O)NC)CCN(S(C)(=O)=O)C2 (stereo unspecified)
5. CCN1CCN(C[C@@H]2CN(c3ncccc3F)C[C@@H]2CO)CC1
6. COCCN1CCN(Cc2cccc(C(=O)N(C)C)c2)CC1
7. O=C(CCc1nc2ccccc2[nH]1)N1CCCC(n2cccn2)C1 (stereo unspecified)

Reply text:
1. 6.56
2. -52
3. -4.04
4. -6.29
5. -6.45
6. -6.79
7. -15.9

Respectfully, I request cytotoxicity at 10 µM for each entry included below.
1. CCC(C)(C)NC(=O)c1ccc(NC(=O)NCc2cc(C)no2)cc1
2. OC1(CN2CCc3nnc(Cc4cccnc4)n3CC2)CCCNC1 (stereo unspecified)
3. CN(C(=O)COc1ccc(-c2noc(C3CCCO3)n2)cc1)C1CC1 (stereo unspecified)
4. CCCc1nc(N2CCCN3CCC[C@H]3C2)c2cnn(C)c2n1
5. O=C(NCCc1ccncc1)[C@H]1C[C@@H]2CCN(c3nncs3)C[C@H]2O1
6. COc1ccc(CN2C[C@@H](O)[C@](O)(CNC(=O)c3ccccn3)C2)cc1
7. COc1ccc(CCCN2C(=O)O[C@@H]3CN(C4CCOCC4)C[C@@H]32)cc1
8. N#Cc1cc(NC(=O)c2ccsc2)ccc1N1CCC(O)CC1

Reply text:
0.696
21.7
-6.79
-129
4.36
8.46
-1.47
4.77

List reported cytotoxicity at 10 µM for each of these molecules:
1. CC(C)O[C@@H]1CC[C@H]2[C@H]1OCCN2C(=O)c1nn(C)c2ccccc12
2. O=C(CCC(=O)N1CCC(Cc2ccc(CO)cc2)C1)c1ccccc1 (stereo unspecified)
3. CCCSc1ncc(-c2nccn2CCO)cn1
4. c1cnc(N2CCOCC3(CCCN(Cc4cccs4)C3)C2)nc1 (stereo unspecified)
5. C=CNC(=O)c1nnc2ccc(N3CCOCC3)cc2n1
6. O=C(CCN1CCCO1)N1CCCC(CO)(CCCc2ccccc2)C1 (stereo unspecified)
7. CS(=O)(=O)N1CCCC(C(=O)Nc2cnn(Cc3ccc(F)cc3)c2)C1 (stereo unspecified)
8. Cc1ccc(NC2CCCN(CCc3ccccc3)C2)nn1 (stereo unspecified)

Reply text:
1. -0.824
2. 0.727
3. -12.9
4. -68.3
5. 8.85
6. 2.76
7. -3.64
8. 11.7

Could you report cytotoxicity at 10 µM for every entry in the following list?
1. CC(C)(C)CN1CC(COc2ccccc2)Oc2ccncc2S1(=O)=O (stereo unspecified)
2. Cc1[nH]nc(CCC(=O)N2CCc3ncnc(NCCO)c3CC2)c1C
3. CCc1noc(C(C)N2CCC(C(=O)Nc3cnn(CC)c3)CC2)n1 (stereo unspecified)
4. Cc1nc(CN2C(=O)COC3(CCN(C)CC3)C2C)cs1 (stereo unspecified)

Reply text:
-65.3
-0.781
2.21
-128

FYI, the data here is from ChEMBL document CHEMBL4513216.
